# Tested on: myeloid leukemia patient primary cells Pat.9
# Assay Remarks: area under dose-response curve (viability, 1 nM-10 uM) (fraction (0-1)); higher = more sensitive
# Run Parameters: 72 h
Assign area under dose-response curve to each entry below.
Give bare numbers.

Worked cases, area under dose-response curve given:
CC(C)(C)c1ccc(S(=O)(=O)NCc2ccc(C(=O)Nc3cccnc3)cc2)cc1 :: 0.8
CCN(CC)C(=S)SSC(=S)N(CC)CC :: 0.257

Request: Entry "O=C1C(SCCO)=C(SCCO)C(=O)c2ccccc21" : reported area under dose-response curve = ?
Result: 0.455

----------
# System: HL-60
# Assay Remarks: cell viability (% survival relative to DMSO control); higher = less cytotoxic
# Run Parameters: 1 µM; 72 h; co-treatment: DMSO vehicle
Counter-ions that a name gives are not always drawn.
Assign cell viability to each entry below.
One number for each entry, in %.

Worked cases, cell viability given:
O=C(NCCN1CCC(n2c(O)nc3ccccc32)CC1)c1cc2cc(F)ccc2[nH]1 :: 108
CC(C)(C)c1ccc(S(=O)(=O)NCc2ccc(C(=O)Nc3cccnc3)cc2)cc1 :: 10.1
COc1ccc2c(NC(=O)Nc3cccc(C(F)(F)F)n3)ccnc2c1 :: 103

For each of the items listed, what is its cell viability?
1. CC(=O)Nc1nc(C)c(-c2ccc(Cl)c(S(=O)(=O)NCCO)c2)s1
2. OC[C@H]1NC[C@H](O)[C@@H](O)[C@@H]1O
3. CN1CCN(CCCN2c3ccccc3Sc3ccc(C(F)(F)F)cc32)CC1
4. Cc1cc(CS(=O)(=O)c2ccccc2)cc(OCc2ccc(CN3CCC[C@@H]3CO)cc2)c1 [PF 543 hydrochloride]
5. CCCCCOC(=O)Nc1nc(=O)n([C@@H]2O[C@H](C)[C@@H](O)[C@H]2O)cc1F

Result:
85.1
102
102
99.8
99.7

----------
# Test system: HL-60
# Assay Remarks: cell viability (% survival relative to DMSO control, bortezomib = 0%); higher = less cytotoxic
# Run Parameters: 1000 nM; 72 h
Rule: measured cell viability below 90% gets T; anything equal to or greater than 90% gets F.

Check out these entries, answers already filled in.
CO[C@H]1C[C@@H]2CC[C@@H](C)[C@@](O)(O2)C(=O)C(=O)N2CCCC[C@H]2C(=O)O[C@H]([C@H](C)C[C@@H]2CC[C@@H](OC(=O)C(C)(CO)CO)[C@H](OC)C2)CC(=O)[C@H](C)/C=C(\C)[C@@H](O)[C@@H](OC)C(=O)[C@H](C)C[C@H](C)/C=C/C=C/C=C/1C :: T
O=C(NCCN1CCC(n2c(O)nc3ccccc32)CC1)c1cc2cc(F)ccc2[nH]1 :: F
O=c1cc(-c2ccccc2)oc2c1ccc1ccccc12 :: F

Request: Record "Cn1cc(-c2ccncc2)c(-c2ccc(OCc3ccc4ccccc4n3)cc2)n1" : is its cell viability strictly below 90%?
Result: F

Request: Record "COC(=O)c1cc2c(C(F)(F)F)cc(-c3ccccc3)cc2n1O" : is its cell viability strictly below 90%?
Result: F

----------
# Tested on: HL-60
# Assay Remarks: cell viability (% survival relative to DMSO control); higher = less cytotoxic
# Run Parameters: 10 µM; 72 h; co-treatment: GSK2194069 100 nM
Where a name gives a salt, the structure may show the parent alone.
Metric Name: cell viability (%)
One number for each entry, in %.

Worked cases, cell viability given:
CCN(CC)C(=S)SSC(=S)N(CC)CC :: 102
OC[C@H]1O[C@@H](n2cnc3c2N=CNC[C@H]3O)C[C@@H]1O :: 94
CC(=O)Nc1nc(C)c(-c2ccc(Cl)c(S(=O)(=O)NCCO)c2)s1 :: 18.2
CCCCCOC(=O)Nc1nc(=O)n([C@@H]2O[C@H](C)[C@@H](O)[C@H]2O)cc1F :: 95.6
Cc1cc(CS(=O)(=O)c2ccccc2)cc(OCc2ccc(CN3CCC[C@@H]3CO)cc2)c1 [PF 543 hydrochloride] :: 92.2

For each of the items listed, what is its cell viability?
1. Cc1cccc(Nc2cc(Cl)nc(SCC(=O)O)n2)c1C
2. CC(C)CC(=O)N[C@H](C(=O)N[C@H](C(=O)N[C@@H](CC(C)C)[C@@H](O)CC(=O)N[C@@H](C)C(=O)N[C@@H](CC(C)C)[C@@H](O)CC(=O)O)C(C)C)C(C)C
3. C[C@]12C=CC(=O)C=C1CC[C@@H]1[C@@H]2[C@@H](O)C[C@@]2(C)[C@H]1CC[C@]2(O)C(=O)CO
4. Cc1cc(C(=O)NNCc2ccccc2)no1

Result:
1. 77.3
2. 99.9
3. 100
4. 98.2

Request: Entry "CO[C@H]1C[C@@H]2CC[C@@H](C)[C@@](O)(O2)C(=O)C(=O)N2CCCC[C@H]2C(=O)O[C@H]([C@H](C)C[C@@H]2CC[C@@H](OC(=O)C(C)(CO)CO)[C@H](OC)C2)CC(=O)[C@H](C)/C=C(\C)[C@@H](O)[C@@H](OC)C(=O)[C@H](C)C[C@H](C)/C=C/C=C/C=C/1C" : reported cell viability = ?
Result: 96.5

Reference source for all entries: the supplement of paper PMC8671470
